Data provenance is the Human Domainome abundance scans (Beltran et al. 2025).

B1: Cytoplasmic polyadenylation element-binding protein 2, residues 513 to 575; numbered along this chain, Q7Z5Q1 (parent)
chain: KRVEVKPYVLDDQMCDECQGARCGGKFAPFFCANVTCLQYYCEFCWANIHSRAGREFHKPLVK

Variants of: B1
Experiment: abundance fitness (aPCA) (normalised: wild type 0, dead -1); higher = more abundant; growth selection in yeast, the domain comes from the species named
Settings: Homo sapiens
endpoint.name: abundance fitness
Numbers only.

In the examples that follow, each entry is paired with its recorded abundance fitness.
[[record]]
variant_description = "W46I"
endpoint_name = "abundance fitness"
measured_value = -0.444

[[record]]
variant_description = "V3H"
endpoint_name = "abundance fitness"
measured_value = -0.039

[[record]]
variant_description = "N34Y"
endpoint_name = "abundance fitness"
measured_value = -0.103

[[record]]
variant_description = "H58L"
endpoint_name = "abundance fitness"
measured_value = -0.707

[[record]]
variant_description = "K26D"
endpoint_name = "abundance fitness"
measured_value = -0.148

[[record]]
variant_description = "R2G"
endpoint_name = "abundance fitness"
measured_value = -0.077

[[record]]
variant_description = "A53R"
endpoint_name = "abundance fitness"
measured_value = 0.055

[[record]]
variant_description = "C15R"
endpoint_name = "abundance fitness"
measured_value = -0.606


Consider the following items and state reported abundance fitness for each.
1. R22F
2. P7A
3. L38V
4. D12Q
5. P29A
6. N48F
7. R2Y

[reply]
1. -0.363
2. -0.227
3. -0.094
4. 0.052
5. 0.009
6. -0.071
7. -0.513
